tested on: Streptococcus faecalis ATTC 29212; assay: in vitro antibacterial MIC, agar plate dilution; assay type: cell-based; settings: Enterococcus faecalis, ATTC29212, 18 hours, 35° C., read-out: MIC
QUANTITY: MIC (µg/mL)

INSERT INTO results (compound, system_under_test, quantity, result_number) VALUES
  ('CCn1cc(C(=O)O)c(=O)c2cc(F)c(N3CCNC(CF)C3)c(F)c21 (racemic) [Example 63]', 'Streptococcus faecalis ATTC 29212', 'MIC', 4);

P: CCn1cc(C(=O)O)c(=O)c2cc(F)c(N3CCNC(CF)C3)c(F)c21 (single isomer, unassigned; (-)) [Example 64]
Q: O=C(O)c1cn(C2CC2)c2cc(N3CCNC(c4ccco4)C3)c(F)cc2c1=O (stereo not shown)
Prompt: Which value of MIC is numerically greater: that of P or that of Q ? Write down the label of the entry you select.
Response: P

---

system: Streptococcus faecalis UCI 85-19; experiment: in vitro antibacterial MIC, agar plate dilution; type: cell-based; details: 18 hours, 35° C.
Where a name gives a salt, the structure may show the parent alone.
QUANTITY: MIC (µg/mL)

Some entries whose results are on file:
INSERT INTO results (compound, result_number) VALUES
  ('CCn1cc(C(=O)O)c(=O)c2cc(F)c(N3CCN(C)C(CF)C3)c(F)c21 (single isomer, unassigned; (+)) [Example 115]', 8),
  ('O=C(O)c1cn(C2CC2)c2cc(N3CCNC(C4CC4)C3)c(F)cc2c1=O (stereo not shown) [Example 124]', 2);

P: O=C(O)c1cn(C2CC2)c2cc(N3CCNC(c4ccccn4)C3)c(F)cc2c1=O (stereo not shown) [Example 129, monohydrochloride]
Q: O=C(O)c1cn(C2CC2)c2cc(N3CCNC(C4CC4)C3)c(F)cc2c1=O (stereo not shown) [Example 96]
Prompt: Which value of MIC is numerically greater: that of P or that of Q ? Write down the label of the entry you select.
Response: P

---

test system: Staphylococcus aureus VGH 84-45; test: in vitro antibacterial MIC, agar plate dilution; format: cell-based; conditions: 18 hours, 35° C.
QUANTITY: MIC (µg/mL)

P: CCn1cc(C(=O)O)c(=O)c2cc(F)c(N3CCNC(CF)C3)c(F)c21 (single isomer, unassigned; (+))
Q: CCn1cc(C(=O)O)c(=O)c2cc(F)c(N3CCN(C)C(CF)C3)c(F)c21 (single isomer, unassigned; (+))
R: O=C(O)c1cn(C2CC2)c2cc(N3CCNC(c4ccco4)C3)c(F)cc2c1=O (centres unmarked)
S: O=C(O)c1cn(C2CC2)c2cc(N3CCNC(C4CC4)C3)c(F)cc2c1=O (centres unmarked)
Prompt: Put the items in order so that reported MIC rises from first to last. Provide the ranking by listing each label in its place in the requested order.
Response: R, S, P, Q
(R: 0.015 µg/mL, S: 0.06 µg/mL, P: 0.12 µg/mL, Q: 0.5 µg/mL)

---

system: Escherichia coli CMC 84-11; experiment: in vitro antibacterial MIC, agar plate dilution; format: cell-based; conditions: Escherichia coli, CMC8411, 18 h, 35° C., read-out: MIC
QUANTITY: MIC (µg/mL)

INSERT INTO results (molecule, unit_tag, result_number) VALUES
  ('CCCCCCOCC1CN(c2cc3c(cc2F)c(=O)c(C(=O)O)cn3CC)CCN1C (centres unmarked) [Example 78]', 'µg/mL', 32),
  ('CN1CCN(c2cc3c(cc2F)c(=O)c(C(=O)O)cn3C2CC2)CC1c1ccsc1 (centres unmarked) [Example 66]', 'µg/mL', 0.12),
  ('CCn1cc(C(=O)O)c(=O)c2cc(F)c(N3CCNC(CO)C3)cc21.Cl (centres unmarked) [Example 5]', 'µg/mL', 1),
  ('O=C(O)c1cn(C2CC2)c2cc(N3CCNC(c4ccoc4)C3)c(F)cc2c1=O (centres unmarked) [Example 92]', 'µg/mL', 0.03),
  ('CCn1cc(C(=O)O)c(=O)c2cc(F)c(N3CCNC(c4cc(C)sc4C)C3)cc21 (centres unmarked) [Example 48]', 'µg/mL', 1);

A: CCn1cc(C(=O)O)c(=O)c2cc(F)c(N3CCNC(c4cc(Cl)sc4Cl)C3)cc21 (centres unmarked) [Example 51]
B: CN1CCN(c2c(F)c(F)c3c(=O)c(C(=O)O)cn(C4CC4)c3c2F)CC1 [Example 111]
Prompt: Which value of MIC is numerically greater: that of A or that of B ? Write down the label of the entry you select.
Response: A
(A: 8 µg/mL, B: 0.015 µg/mL)

---

test system: Pseudomonas aeruginosa LL-1244; assay: in vitro antibacterial MIC, agar plate dilution; format: cell-based; conditions: Pseudomonas aeruginosa, LL1244, 18 h, 35° C., read-out: MIC
QUANTITY: MIC (µg/mL)

P: O=C(O)c1cn(C2CC2)c2cc(N3CCNC(c4ccoc4)C3)c(F)cc2c1=O (centres unmarked) [Example 92]
Q: CCn1cc(C(=O)O)c(=O)c2cc(F)c(N3CCN(C)C(CF)C3)c(F)c21 (racemic) [Example 113]
Prompt: Compare reported MIC values for P and Q . Which is lower? Write down the label of the entry you select.
Response: P

---

test system: Escherichia coli CMC 84-11; test: in vitro antibacterial MIC, agar plate dilution; type: cell-based; details: Escherichia coli, CMC8411, 18 h, 35° C., read-out: MIC
QUANTITY: MIC (µg/mL)

INSERT INTO measurements (compound, result_number) VALUES
  ('CCn1cc(C(=O)O)c(=O)c2cc(F)c(N3CCNC(c4ccoc4)C3)cc21 (centres unmarked) [Example 94]', 0.12),
  ('CCn1cc(C(=O)O)c(=O)c2cc(F)c(N3CCNC(c4cc5cc(Cl)ccc5o4)C3)cc21 (centres unmarked) [Example 18]', 16),
  ('CCn1cc(C(=O)O)c(=O)c2cc(F)c(N3CCN(C)CC3)c(F)c21 [Example 61]', 0.03),
  ('CCn1cc(C(=O)O)c(=O)c2cc(F)c(N3CCNC(c4ccc(Cl)s4)C3)cc21 (centres unmarked) [Example 34]', 1);

P: CCn1cc(C(=O)O)c(=O)c2cc(F)c(N3CCN(C)C(COC)C3)cc21 (centres unmarked) [Example 10]
Q: CCn1cc(C(=O)O)c(=O)c2cc(F)c(N3CCNC(CN(C)C)C3)cc21 (centres unmarked) [Example 2]
Prompt: Compare reported MIC values for P and Q . Which is lower? Write down the label of the entry you select.
Response: P

---

system: Escherichia coli CMC 84-11; assay: in vitro antibacterial MIC, agar plate dilution; type: cell-based; details: Escherichia coli, CMC8411, 18 h, 35° C., read-out: MIC
QUANTITY: MIC (µg/mL)

Some entries whose results are on file:
INSERT INTO results (compound, quantity, result_number) VALUES
  ('O=C(O)c1cn(C2CC2)c2cc(N3CCNC(c4ccco4)C3)c(F)cc2c1=O (centres unmarked)', 'MIC', 0.03),
  ('O=C(O)c1cn(C2CC2)c2cc(N3CCNC(CF)C3)c(F)cc2c1=O (centres unmarked)', 'MIC', 0.015),
  ('CCn1cc(C(=O)O)c(=O)c2cc(F)c(N3CCNC(c4ccsc4)C3)cc21 (centres unmarked)', 'MIC', 0.12),
  ('CCn1cc(C(=O)O)c(=O)c2cc(F)c(N3CCN(C)C(COc4ccccc4)C3)cc21 (centres unmarked)', 'MIC', 2),
  ('CCn1cc(C(=O)O)c(=O)c2cc(F)c(N3CCNC(c4ccccn4)C3)c(F)c21 (centres unmarked)', 'MIC', 0.06);

A: CCCCCCOCC1CN(c2cc3c(cc2F)c(=O)c(C(=O)O)cn3CC)CCN1 (centres unmarked)
B: CCn1cc(C(=O)O)c(=O)c2cc(F)c(N3CCN(C)C(c4ccn(S(=O)(=O)c5ccccc5)c4)C3)cc21 (centres unmarked)
Prompt: Which value of MIC is numerically greater: that of A or that of B ? Write down the label of the entry you select.
Response: B

---

Tested on: Staphylococcus aureus VGH 84-47
Assay: in vitro antibacterial MIC, agar plate dilution
Type: cell-based
Settings: Staphylococcus aureus, VGH8447, 18 h, 35° C., read-out: MIC
Description: The in vitro antimicrobial spectrum of the compounds of ths invention were determined by the agar plate dilution method with Mueller-Hinton agar and an inoculum of each test organism of approximately 10^4 colony forming units delivered by the Steers replicating device. The minimal inhibitory concentration (MIC) in mcg/ml is defined as the lowest concentration of test compound that inhibited visible growth after 18 hours incubation at 35° C. […]
Where a name gives a salt, the structure may show the parent alone.
QUANTITY: MIC (µg/mL)

INSERT INTO assay_data (molecule, result_number) VALUES
  ('CCn1cc(C(=O)O)c(=O)c2cc(F)c(N3CCN(C)C(c4ccn(C)n4)C3)cc21 (centres unmarked) [Example 109]', 2),
  ('CCn1cc(C(=O)O)c(=O)c2cc(F)c(N3CCNC(c4ccoc4)C3)cc21 (centres unmarked) [Example 94]', 0.25),
  ('CCn1cc(C(=O)O)c(=O)c2cc(F)c(N3CCN(C)C(c4ccnn4C)C3)cc21 (centres unmarked) [Example 110]', 1),
  ('O=C(O)c1cn(C2CC2)c2cc(N3CCNC(c4ccoc4)C3)c(F)cc2c1=O (centres unmarked) [Example 92]', 0.12),
  ('O=C(O)c1cn(C2CC2)c2cc(N3CCNC(c4cc[nH]c4)C3)c(F)cc2c1=O (centres unmarked) [Example 119]', 0.12);

1: O=C(O)c1cn(C2CC2)c2cc(N3CCNC(c4ccsc4)C3)c(F)cc2c1=O (centres unmarked) [Example 98, monohydrochloride]
2: CN1CCN(c2cc3c(cc2F)c(=O)c(C(=O)O)cn3C2CC2)CC1C1CC1 (centres unmarked) [Example 125]
3: O=C(O)c1cn(C2CC2)c2cc(N3CCNC(c4cc[nH]n4)C3)c(F)cc2c1=O (centres unmarked) [Example 121]
Prompt: // ranking: key=MIC, reverse=True Provide the ranking by listing each label in its place in the requested order.
Response: 3, 2, 1
(3: 1 µg/mL, 2: 0.5 µg/mL, 1: 0.12 µg/mL)
